For each entry below, report its IC50 value.
Tested on: Vero
TEST METHOD NOTES: Cell viability assay
Format: cell-based, African green monkey
CONDITIONS USED: read-out: IC50 (μM) Vero; MTT, 72 hours, n=4 ± SE; normal cell line

Query CSc1c2c3c(n1C)C(=O)C(N)=C(Cl)C3=NCC2 [Isobatzelline A] on Vero; IC50 returned: > 17.7 µM

Query CSc1c2ccnc3c2c(n1C)C(=O)C(N)=C3Cl [Isobatzelline D] on Vero; IC50 returned: 15.7 µM

Query Cn1cc2ccnc3c2c1C(=O)C(N)=C3Cl [Isobatzelline E] on Vero; IC50 returned: > 21.5 µM

Query CSC1=Nc2c(O)c(O)c(Cl)c3c2=C1CCN=3 [Batzelline B] on Vero; IC50 returned: > 18.6 µM

* * *

System: genomic salmon testes DNA
TEST METHOD NOTES: DNA intercalation assay
Type: binding
CONDITIONS USED: 25 μg/ml; ethidium bromide displacement
Marks after values point to notes of the source that are not given here.
OBSERVATION TYPE: % DNA intercalation

Per the record, CSc1c2ccnc3c2c(n1C)C(=O)C(N)=C3Cl has % DNA intercalation of 47 ^** %

Per the record, Cn1cc2c3c1C(=O)C(N)=C(Cl)C3=NCC2 has % DNA intercalation of 56 ^** %

Per the record, CSc1c2c3c(n1C)C(=O)C(N)=C(Cl)C3=NCC2 has % DNA intercalation of 54 ^** %
